Experiment: Plasma and tumor PK in MC38 colon cancer xenograft mice
Format: in vivo, mouse
Details: C57BL/6, mouse, plasma, after last oral dose of IMMH-010 maleate 5 mg/kg for 19 days, read-out: mean peak concentration (Cmax) in plasma

# compound, readoutUnit, Cmax
records = [
    ("O=C(O)[C@H](CO)NCc1cc(Cl)c(OCc2cccc(-c3ccccc3)c2Br)cc1OCc1cccnc1 [YPD-29B]", "ng/mL", 64.4),
]

---

Attribute: Tmax
Assay: PK study in male cynomolgus monkeys
Assay type: in vivo, cynomolgus monkey
Conditions: cynomolgus monkey, plasma, single oral IMMH-010 maleate 5 mg/kg, read-out: observed time to peak concentration

# compound, Tmax
data = [
    ("O=C(O)[C@H](CO)NCc1cc(Cl)c(OCc2cccc(-c3ccccc3)c2Br)cc1OCc1cccnc1 [YPD-29B]", "≤ 1.5 h"),
    ("CC(C)OC(=O)[C@H](CO)NCc1cc(Cl)c(OCc2cccc(-c3ccccc3)c2Br)cc1OCc1cccnc1", "≤ 1.5 h"),
]

---

Experiment: Metabolism in human liver S9 fractions
Assay type: in vitro ADME
Settings: pH 7.4; human liver S9 0.5 mg protein/mL, 10 μM, NADPH

# structureString, half-life at 10 μM, min
measured = [
    ("CC(C)OC(=O)[C@H](CO)NCc1cc(Cl)c(OCc2cccc(-c3ccccc3)c2Br)cc1OCc1cccnc1", 6.66),
]

---

Assay: Plasma and tumor PK in B16F10 melanoma xenograft mice
Type: in vivo, mouse
Conditions: C57BL/6, mouse, tumor; B16F10 mice, IMMH-010 maleate 5 mg/kg PO; read-out: time of maximum concentration in the tumor

# molecule, Tmax
measured = [
    ("O=C(O)[C@H](CO)NCc1cc(Cl)c(OCc2cccc(-c3ccccc3)c2Br)cc1OCc1cccnc1 [YPD-29B]", "15 to 60 min"),
]

---

Experiment: Metabolism in rat liver S9 fractions
Type: in vitro ADME
Conditions: pH 7.4; rat liver S9 0.5 mg protein/mL, 10 μM, NADPH
readout: half-life at 10 μM (min)

# structureString, reportedResult
rows = [
    ("CC(C)OC(=O)[C@H](CO)NCc1cc(Cl)c(OCc2cccc(-c3ccccc3)c2Br)cc1OCc1cccnc1", 7.1),
]

Source: paper PMC8143347
